B1: TPR t1 (parent)
chain: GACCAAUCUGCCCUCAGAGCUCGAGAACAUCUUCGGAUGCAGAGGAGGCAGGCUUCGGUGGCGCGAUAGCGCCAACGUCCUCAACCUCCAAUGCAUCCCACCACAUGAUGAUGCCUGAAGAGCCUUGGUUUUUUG

# Variants of: B1
# Assay remarks: polymerase ribozyme fitness, log enrichment relative to wild type (log ratio); higher = more active; in vitro selection for triplet polymerase activity
Property name: polymerase ribozyme fitness (log ratio)

Query sequence: GACCCAUCUGCCUUCAGAGCUCGAGAACAUCUUCGGAUGCAGAGGAGGCAGGCUUCGGUUGCGCGAUAGCGCCAACGUCCUCAACCUCCAAUGCAUCCCACCACAUGAUGAUGCCUGAAGAGCCUUGGUUUUUUG [A5C C13U G60U]
polymerase ribozyme fitness (log ratio): -0.844
--
Query sequence: GACCAAUCUGCCCUCAGAGCUCGAGAACAUCUUCGGAUGCAGAGGAUGCAGGCUUCGGUGGCUCGAUAGCGCCAACGUCCUCAAACUCCAAUGCAUCCCACCACAUGAUGAUGCCUGAAGAGCCUUGGUUUUUUG [G47U G63U C85A]
polymerase ribozyme fitness (log ratio): -3.29
--
Query sequence: GACCAAUCUGCCCUCAGAGCUCGAGAACAUCUUCGGAUGCAGAGGAAGCAGGCUUCGGUGGCGCGAUAGCGCCAACGUCCUCAACCUCCAAUGCAUCCCACCAAAUGAUGAUGCCUGAAGAGCCUUGGUUUUUUG [G47A C104A]
polymerase ribozyme fitness (log ratio): -2.7
--
Query sequence: GACCAAUCUGCCCUCAGAGCUCGAGAACAUCUUCGGAUGCAGAGGAGGCAGGCUUCGGUGGCGCGAUAGCGCCAACGUCCUCAACCUCCAAUGCAUCCCACCCCAUGAUGAUGCCUGAAGAGCCUUGGUUUUGUG [A103C U133G]
polymerase ribozyme fitness (log ratio): -4.45
--
Query sequence: GACCAAUCUGCCCUCAGAGCUCGGGAACAUCUUCGGAUGCAGAGGAGGGAGGCUUCGGUGGCGCGAUAGCGCCAACGUCCUCAACCUCCAAUGCAUCCCACCACAUGAUGAUGCCUGAAGAGCCUUGGUUUUUUG [A24G C49G]
polymerase ribozyme fitness (log ratio): -1.9

We next turn to a different variant, shown below.
Briefly, polymerase ribozyme fitness (log ratio) measured for GACCAAUCUGCACUCAGCGCUCGAGAACGUCUUCGGAUGCAGAGGAGGCAGGCUUCGGUGGCGCGAUAGCGACAACGUCCUCAACCUCCAAUGCAUCCCACCACAUGAUGAUGCCUGAAGAGCCUUGGUUUUUUG [C12A A18C A29G C72A] : -2.28
